Each recorded value in this set is attributed to paper PMC10877290.

pIC50: −log10 of the molar value.
The following are reported pIC50 results, target or system human lysosomal acid-α-glucosidase (Homo sapiens).
metric: pIC50

Here are 4 compounds together with their reported answers.
| input_smiles | observed_result |
| --- | --- |
| COc1cc(C[C@@H]2C[C@H]3C(=O)N(C)[C@@]4(C[C@H](C)CC[C@H]4C(C)C)N3O2)ccc1OCC(=O)N/N=C1\C(=O)Nc2c(Cl)cccc21 | 3.68 |
| Cc1cccc(C[C@@H]2C[C@H]3C(=O)N(C)[C@@]4(C[C@H](C)CC[C@H]4C(C)C)N3O2)c1OCC(=O)N/N=C1\C(=O)Nc2ccc(F)cc21 | 3.97 |
| Cc1cccc(C[C@@H]2C[C@H]3C(=O)N(C)[C@@]4(C[C@H](C)CC[C@H]4C(C)C)N3O2)c1OCC(=O)N/N=C1\C(=O)Nc2cc(Br)ccc21 | 3.76 |
| Cc1cccc(C[C@@H]2C[C@H]3C(=O)N(C)[C@@]4(C[C@H](C)CC[C@H]4C(C)C)N3O2)c1OCC(=O)N/N=C1\C(=O)Nc2c(Cl)cccc21 | 4.19 |

I = Cc1cccc(C[C@@H]2C[C@H]3C(=O)N(C)[C@@]4(C[C@H](C)CC[C@H]4C(C)C)N3O2)c1OCC(=O)N/N=C1\C(=O)Nc2c(F)cccc21
II = COc1cc(C[C@@H]2C[C@H]3C(=O)N(C)[C@@]4(C[C@H](C)CC[C@H]4C(C)C)N3O2)ccc1OCC(=O)N/N=C1\C(=O)Nc2cc(Br)ccc21
(Q) Please state the entry with greater pIC50 among I and II . Use the label to indicate which entry you chose.
(A) I
(I: 4.07, II: 3.82)
